Molecular target: human m4 receptors (Homo sapiens)
Construct: expressed in transfected cells; host or cells: CHO K1 cells
Sequence (P08173 whole entry): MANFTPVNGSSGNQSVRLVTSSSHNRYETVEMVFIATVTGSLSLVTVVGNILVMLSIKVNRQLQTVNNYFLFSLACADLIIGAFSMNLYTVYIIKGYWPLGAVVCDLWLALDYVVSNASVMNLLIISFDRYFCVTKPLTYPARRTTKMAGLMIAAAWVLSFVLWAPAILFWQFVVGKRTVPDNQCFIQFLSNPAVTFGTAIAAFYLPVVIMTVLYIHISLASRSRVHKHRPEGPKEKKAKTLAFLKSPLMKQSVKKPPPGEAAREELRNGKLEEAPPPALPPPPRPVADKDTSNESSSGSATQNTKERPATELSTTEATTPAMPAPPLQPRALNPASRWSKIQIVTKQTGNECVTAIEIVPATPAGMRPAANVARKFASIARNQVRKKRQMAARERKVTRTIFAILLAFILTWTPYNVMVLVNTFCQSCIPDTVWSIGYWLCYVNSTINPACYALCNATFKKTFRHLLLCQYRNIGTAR
Experiment: Stimulation of cyclic AMP production in pertussis toxin-treated CHO-m4 cells
Format: cell-based
Conditions: forskolin present
Would you kindly list % Maximum Stimulation Compared to Oxotremorine-M for each of these compounds?
Express your answer in %, writing the number without its unit.

Data request: Record request: % Maximum Stimulation Compared to Oxotremorine-M value, item O=C(NC1c2cc(N=CN3CCCC3)ccc2CC1O)C1CCCCC1 (centres unmarked) [Compound 11]
Data returned: 34

Data request: Try this compound too: CN(C)C=Nc1ccc2c(c1)[C@@H](NC(=O)c1sccc1Cl)[C@H](O)C2 [Compound 68]
Data returned: 0

Data request: Try this compound too: CN(C)C=Nc1ccc2c(c1)[C@@H](NC(=O)c1ccc3ccccc3c1)[C@H](O)C2 [Compound 63]
Data returned: 13

Data request: Try this compound too: O=C(NC1c2cc(N=CN3CCCC3)ccc2CC1O)c1ccccc1Cl (centres unmarked) [Compound 44]
Data returned: 41
